- tested_on: H3 (A/Hong Kong/1/1968) (Influenza A virus, UniProt Q91MA7)
- condition_info: read-out: affinity constant via yeast surface display
outcome_measure: Kd (nM)
I only need the number, in nM, no unit after it.

See these solved cases before continuing.
substance	quantity_unit	experimental_result
GIVNVPN(P/C)NTTKYQQLARSAIAIYNNHQNAHLEFVENLN(V/C)KEQVSYGAMYYITLAATDDAGKKKIYKAKVGVVESAGWVGVEEFKLV [52alt1-3]	nM	3
GIVNVPN(P/C)NTTKYQQLARSAIAIYNYHQNAHLEFVENLN(V/C)KEQLGEGDMYYITLAATDDAGKKKIYKAKIGVVESAGWTGVEEFKLV [52NC-2]	nM	3.9

The record that follows has no Kd shown yet.
Reported H3 (A/Hong Kong/1/1968) (Influenza A virus, UniProt Q91MA7) Kd for item GIVNVPN(P/C)NTTKYQQLARSAIAIYNYHQNAHLEFVENLN(V/C)KEQVGGMNMYYITLAATDDAGKKKIYKAKVGVVESAGWKGVEEFKLV [52solo1] was 35.7

====

- tested_on: HA of H3N2 A/Hong Kong/1/1968 (Influenza A virus)
- condition_info: read-out: Kd (binding constant)
outcome_measure: pKd
# pKd is unitless: minus log10 of the molar concentration; print number only

The recorded pKd for GIVNVPN(P/C)NTTKYQQLARSAIAIYNYHQNAHLEFVENLN(V/C)KEQLGEGDMYYITLAATDDAGKKKIYKAKIGVVESAGWTGVEEFKLV [52NC-2] is 6.74

====

- tested_on: H2 (A/Adachi/2/1957) (Influenza A virus)
- condition_info: read-out: affinity constant via yeast surface display
outcome_measure: pKd
Just the number, please; pKd means minus log10 of the concentration in mol/L.

substance	pKd
GIVNVPN(P/C)NTTKYQQLARSAIAIYNYHQNAHLEFVENLN(V/C)KEQLGEGDMYYITLAATDDAGKKKIYKAKIGVVESAGWTGVEEFKLV [52NC-2]	8.02

// GIVNVPN(P/C)NTTKYQQLARSAIAIYNNHQNAHLEFVENLN(V/C)KEQVSYGAMYYITLAATDDAGKKKIYKAKVGVVESAGWVGVEEFKLV [52alt1-3] : pKd value = 8.07

====

- tested_on: H1 (A/Solomonislands/3/2006) (Influenza A virus)
- Sequence (A7UPX0 1-565): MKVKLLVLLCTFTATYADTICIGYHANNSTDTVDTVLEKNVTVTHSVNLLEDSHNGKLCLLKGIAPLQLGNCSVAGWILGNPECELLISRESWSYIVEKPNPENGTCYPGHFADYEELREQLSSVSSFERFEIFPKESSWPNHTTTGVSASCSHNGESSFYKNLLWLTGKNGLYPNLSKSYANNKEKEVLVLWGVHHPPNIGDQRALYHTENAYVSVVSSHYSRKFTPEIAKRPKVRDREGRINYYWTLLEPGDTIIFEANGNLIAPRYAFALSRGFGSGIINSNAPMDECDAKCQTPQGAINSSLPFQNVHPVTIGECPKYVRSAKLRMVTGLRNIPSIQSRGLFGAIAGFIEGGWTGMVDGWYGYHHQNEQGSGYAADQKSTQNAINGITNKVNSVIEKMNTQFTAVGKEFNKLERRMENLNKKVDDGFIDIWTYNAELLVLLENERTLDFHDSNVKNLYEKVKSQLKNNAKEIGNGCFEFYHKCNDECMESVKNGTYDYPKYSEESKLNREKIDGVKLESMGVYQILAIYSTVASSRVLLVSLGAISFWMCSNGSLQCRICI
- condition_info: read-out: affinity constant via yeast surface display
The reader will find reported pKd values listed item by item below.
Units for pKd: none; it is -log10 of a concentration expressed in mol/L.

Known results for substances:
substance	pKd
GIVNVPN(P/C)NTTKYQQLARSAIAIYNYHQNAHLEFVENLN(V/C)KEQVGGMNMYYITLAATDDAGKKKIYKAKVGVVESAGWKGVEEFKLV [52solo1]	8.74
GIVNVPN(P/C)NTTKYQQLARSAIAVYNYHQNAHLEFVENLN(V/C)KEQIAGKTMYYITLAATDDAGKKKIYKAKVGVVESAGWEGVEEFKLV [52solo2]	8.77
GIVNVPN(P/C)NTTKYQQLARSAIAIYNYHQNAHLEFVENLN(V/C)KEQLGEGDMYYITLAATDDAGKKKIYKAKIGVVESAGWTGVEEFKLV [52NC-2]	8.36

Then there is this substance:
Value (pKd, H1 (A/Solomonislands/3/2006) (Influenza A virus)) for record GIVNVPN(P/C)NTTKYQQLARRAIAIYNNNQNAHLEFVENLN(V/C)KEQTGLGIMYYITLAATDDAGKKKIYKAKIAVVESAGWVAVSEFKLV [52Sing2] = 7.76

Reference for the values: patent US20170198014A1
